Source: PubChem BioAssay (NCI)

# Lookup of reported TGI keyed by entry
# Test system: SK-MEL-28 melanoma
# MEASUREMENT_PROTOCOL: NCI tumour cell line growth inhibition, 48 h

- MOLECULE: "OC(CCl)CN1CC[N+]2(CC1)CC[N+]1(CCN(CC(O)CCl)CC1)CC2 (stereo not given)"
  TGI: "> 50 µM"
- MOLECULE: "CC(=O)/C(=C/N1CCN(C(=O)c2ccco2)C1=S)C(=O)c1ccccc1"
  TGI: "> 50 µM"

Ask: Indicate the recorded TGI value for this molecule: CN(C)CCOc1ccc2c(c1)C(=O)/C(=C\c1ncc([N+](=O)[O-])n1C)C2
Result: 2.79 µM

Ask: Indicate the recorded TGI value for this molecule: CN(C)Cc1cc(C(C)(C)C)cc(CN(C)C)c1O
Result: > 100 µM

Ask: Indicate the recorded TGI value for this molecule: COc1ccc(C2NC(N)=C(C#N)C3=C2C(C)CCC3)cc1OC (stereo not given)
Result: > 100 µM

Ask: Indicate the recorded TGI value for this molecule: CCN(CCC#N)C(=O)Nc1ccccc1
Result: > 100 µM

Ask: Indicate the recorded TGI value for this molecule: CCOC(=O)N(O)c1ccc(/C=C/c2ccccc2)cc1
Result: 59.8 µM

----------
# Lookup of reported log10(TGI) keyed by entry
# Tested on: HL-60(TB) leukemia
# MEASUREMENT_PROTOCOL: NCI tumour cell line growth inhibition, 48 h
Heads up, the numbers here are log10 of TGI in µM units.

- MOLECULE: "C1CC[N-]CC1.CC(=N\\O)/C(C)=N/O.CC(=N\\O)/C(C)=N/O.C[CH-]C(C)O.[Co+2]"
  READOUT_VALUE: 1.66
- MOLECULE: "C[C@H]1CCC2C(OC(=O)[C@@H]2CN(C)C)[C@]2(C)C(=O)C=CC12O (stereo not given in full)"
  READOUT_VALUE: 0.86
- MOLECULE: "Cc1nc2sc(C(=O)Nc3ccccc3)c(N)c2cc1C(=O)c1ccccc1"
  READOUT_VALUE: 1.58
- MOLECULE: "Clc1ncnc2c1nc(C#Cc1ccccc1)n2C1CCCCO1 (stereo not given)"
  READOUT_VALUE: 0.84
- MOLECULE: "Cc1ccc2c(=O)cc(-c3cccc(F)c3)[nH]c2n1"
  READOUT_VALUE: -1.21

Ask: Indicate the recorded log10(TGI) value for this molecule: CC[C@@H](C(=O)[C@@H](C)[C@@H](O)[C@H](C)[C@@H]1O[C@@H]([C@@H](CC)C(=O)O)CC[C@@H]1C)[C@H]1O[C@]2(C=C[C@@H](O)[C@]3(CC[C@@](C)([C@H]4CC[C@](O)(CC)[C@H](C)O4)O3)O2)[C@H](C)C[C@@H]1C
Result: -0.09

Ask: Indicate the recorded log10(TGI) value for this molecule: O=C(/C=C/c1ccc(Cl)cc1Cl)c1ccc(Cl)cc1Cl
Result: 1.64

Ask: Indicate the recorded log10(TGI) value for this molecule: C=CCO[C@H]1CC[C@@]2(C)C(CC[C@]3(C)C2CC=C2[C@@H]4[C@@H](C)C(C)CC[C@]4(C(=O)O)CCC23C)C1(C)C (stereo not given in full)
Result: 1.34

Ask: Indicate the recorded log10(TGI) value for this molecule: CCCCCCCCc1cc(O)ccc1O
Result: 1.21

----------
# Tested on: NCI-H23 lung
# MEASUREMENT_PROTOCOL: NCI tumour cell line growth inhibition, 48 h
# Lookup of reported TGI keyed by entry

Examples with their reported TGI follow.
- MOLECULE: "Cc1ccc([N+]2=NC(c3ccccc3)=NN(c3ccccc3)C2)cc1"
  READOUT_VALUE: "> 100 µM"
- MOLECULE: "N#Cc1c(N2CCCC2)nsc1Nc1ccccc1"
  READOUT_VALUE: "> 100 µM"
- MOLECULE: "COc1ccc(C2=Nc3c(nc(SC)[nH]c3=O)NC(c3ccccc3)C2)cc1 (stereo unspecified)"
  READOUT_VALUE: "45.6 µM"
- MOLECULE: "CC(=O)[O][Hg][c]1s[c]([Hg][O]C(C)=O)[c]([Hg][O]C(C)=O)[c]1[Hg][O]C(C)=O"
  READOUT_VALUE: "> 100 µM"
- MOLECULE: "Cn1c(-c2c(C3=CC(=O)N(c4ccccc4)C3=O)c3ccccc3n2C)cc2ccccc21"
  READOUT_VALUE: "> 100 µM"

Ask: Indicate the recorded TGI value for this molecule: CCCCCCCCc1cc(O)ccc1O
Result: 42 µM

----------
# Tested on: DU-145 prostate
# MEASUREMENT_PROTOCOL: NCI tumour cell line growth inhibition, 48 h
PROPERTY_LABEL: TGI

Examples with their reported TGI follow.
- MOLECULE: "CCC(C)N1CN(c2ccccc2)C2(CCN(CCCC3(c4ccc(F)cc4)OCCO3)CC2)C1=O (stereo unspecified)"
  TGI: "> 57.3 µM"
- MOLECULE: "Cc1cn2cc(-c3ccc4c(c3)CC(=O)N4)nc2s1"
  TGI: "> 100 µM"
- MOLECULE: "COC(=O)[C@@H](C)C[C@H](Cc1ccccc1)NC(=O)c1csc([C@@H](C[C@H](C(C)C)N(C)C(=O)[C@@H](NC(=O)[C@H]2CCCCN2C)C(C(F)(F)F)C(F)(F)F)OC(C)=O)n1"
  TGI: "> 16.7 µM"
- MOLECULE: "C=C1C(=O)OC2(C)CCC1CC1OC1(C)CCC=C(C)CCC2O (stereo unspecified)"
  TGI: "> 100 µM"
- MOLECULE: "COc1ccc(/C=C(/c2ccc(OC)cc2)c2c(Cl)cc(Cl)c(/C(=C\\c3ccc(OC)cc3)c3ccc(OC)cc3)c2N=Nc2ccccc2)cc1"
  TGI: "> 100 µM"

Ask: Indicate the recorded TGI value for this molecule: CN(C)CCOc1ccc2c(c1)C(=O)/C(=C\c1ncc([N+](=O)[O-])n1C)C2
Result: 0.661 µM

Ask: Indicate the recorded TGI value for this molecule: Cc1cc2nc(-c3ccc(O)c(O)c3)n(Cc3ccc(O)c(O)c3)c2cc1C
Result: > 100 µM

Ask: Indicate the recorded TGI value for this molecule: COc1ccc(S(=O)(=O)Nc2cc(Sc3cccc4cccnc34)c(O)c3ccccc23)cc1
Result: 2.65 µM

Ask: Indicate the recorded TGI value for this molecule: C1CC[N-]CC1.CC(=N\O)/C(C)=N/O.CC(=N\O)/C(C)=N/O.C[CH-]C(C)O.[Co+2]
Result: > 100 µM

Ask: Indicate the recorded TGI value for this molecule: C[C@@H]1Cc2c(ccc3[nH]ncc23)[C@@H](c2ccc(NC3CN(CCCF)C3)cn2)N1CC(F)(F)F
Result: > 100 µM

Ask: Indicate the recorded TGI value for this molecule: CCOc1ccccc1N=Cc1c2ccccc2cc2ccccc12
Result: 58.4 µM

Ask: Indicate the recorded TGI value for this molecule: CCOC(=O)C1CCCN1C(=O)c1ccccc1Cl (stereo unspecified)
Result: > 100 µM

Ask: Indicate the recorded TGI value for this molecule: CCOC(=O)CN1C(=O)C(=O)N(c2ccc(OC)c3ccccc23)C1=O
Result: > 100 µM

Ask: Indicate the recorded TGI value for this molecule: COc1ccc(/C=C2\OC(=O)C(Cl)=C2c2ccc(OC)c(Cl)c2)cc1
Result: > 100 µM

Ask: Indicate the recorded TGI value for this molecule: Cc1ccc(C)c2c1n1c(=O)n(C)c(=O)n21
Result: > 100 µM

----------
# Test system: PC-3 prostate
# MEASUREMENT_PROTOCOL: NCI tumour cell line growth inhibition, 48 h
PROPERTY_LABEL: TGI

Examples with their reported TGI follow.
- COMPOUND: "O=C(/C=C/c1ccc(Cl)cc1Cl)c1ccc(Cl)cc1Cl"
  TGI: "64.3 µM"
- COMPOUND: "CC(C)(C)OC(=O)NNCC(O)COc1ccccc1 (stereo unspecified)"
  TGI: "> 100 µM"
- COMPOUND: "Cc1cc(S(=O)(=O)Nc2n[nH]c(Nc3ccccc3)n2)c(SSc2cc(Cl)c(C)cc2S(=O)(=O)Nc2n[nH]c(Nc3ccccc3)n2)cc1Cl"
  TGI: "> 100 µM"

Ask: Indicate the recorded TGI value for this compound: C[C@@H](C[C@H](CCO)c1ccccc1)c1ccc2ccccc2c1
Result: 2.72 µM

Ask: Indicate the recorded TGI value for this compound: Cc1nc2sc(C(=O)Nc3ccccc3)c(N)c2cc1C(=O)c1ccccc1
Result: > 50 µM

Ask: Indicate the recorded TGI value for this compound: Cc1c(C2CCSc3ccccc3N2)sc2ccccc12 (stereo unspecified)
Result: > 100 µM

Ask: Indicate the recorded TGI value for this compound: NC1=C(O)C(=O)C(c2c[nH]c3ccc(OCc4ccccc4)cc23)O1 (stereo unspecified)
Result: > 100 µM

Ask: Indicate the recorded TGI value for this compound: COc1ccc(/C=C/C(=O)c2ccc(Nc3nc(Nc4ccc(F)cc4)nc(Nc4ccc(F)cc4)n3)cc2)cc1
Result: 21.4 µM

Ask: Indicate the recorded TGI value for this compound: Cc1cn2cc(-c3ccc4c(c3)CC(=O)N4)nc2s1
Result: > 100 µM

Ask: Indicate the recorded TGI value for this compound: CCCCOc1ccc(S(=O)(=O)/N=C(\NO)Nc2ccc(Cl)cc2)cc1
Result: 29.7 µM

Ask: Indicate the recorded TGI value for this compound: Cc1ccc(S(=O)(=O)NC(=O)NC(CC(=O)O)C(=O)O)cc1 (stereo unspecified)
Result: > 100 µM

Ask: Indicate the recorded TGI value for this compound: COc1ccc(C2NC(N)=C(C#N)C3=C2C(C)CCC3)cc1OC (stereo unspecified)
Result: > 100 µM

Ask: Indicate the recorded TGI value for this compound: CC(C)(CO)CNc1cc(Cl)nc(N)n1
Result: > 100 µM

Ask: Indicate the recorded TGI value for this compound: O=C(Cn1c(=O)oc2ccc(C(=O)c3cccc(Cl)c3)cc21)c1ccccc1
Result: > 100 µM

Ask: Indicate the recorded TGI value for this compound: CNc1nc(-c2ccc3c(N)n[nH]c3c2)cc(N2C[C@@H](C(=O)NC3CCCCC3)CC[C@H]2C)n1
Result: 18.4 µM

Ask: Indicate the recorded TGI value for this compound: COC(=O)/C=C\C(C#N)(C#N)N=Cc1ccc(Br)cc1
Result: 32.4 µM

Ask: Indicate the recorded TGI value for this compound: Fc1ccc2c(c1)nc1n2C(c2c(F)cccc2F)SC1 (stereo unspecified)
Result: > 100 µM

Ask: Indicate the recorded TGI value for this compound: C=C1CC(O)C2C(=C)C(=O)OC2C2C(C)C(=O)CC12 (stereo unspecified)
Result: > 100 µM

Ask: Indicate the recorded TGI value for this compound: NS(=O)(=O)c1ccc(NCc2nc3ccccc3[nH]2)cc1
Result: > 100 µM
